Attribution: patent US7932261B2

ASSAY SYSTEM: β-secretase (BACE) (Homo sapiens)
Construct: purchased Panvera
Sequence (P56817 46-501): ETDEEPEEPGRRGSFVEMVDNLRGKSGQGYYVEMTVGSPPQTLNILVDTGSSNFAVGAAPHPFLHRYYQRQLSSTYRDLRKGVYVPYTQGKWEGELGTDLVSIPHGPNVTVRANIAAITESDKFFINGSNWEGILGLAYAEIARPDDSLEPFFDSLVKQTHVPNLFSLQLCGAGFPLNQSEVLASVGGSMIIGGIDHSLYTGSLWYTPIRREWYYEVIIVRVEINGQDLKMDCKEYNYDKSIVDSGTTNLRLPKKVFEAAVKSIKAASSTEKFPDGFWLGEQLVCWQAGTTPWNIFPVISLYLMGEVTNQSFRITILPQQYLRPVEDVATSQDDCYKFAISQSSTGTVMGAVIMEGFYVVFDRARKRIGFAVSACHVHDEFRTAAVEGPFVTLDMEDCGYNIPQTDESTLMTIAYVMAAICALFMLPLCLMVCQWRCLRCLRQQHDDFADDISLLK
ASSAY OVERVIEW: in vitro BACE FS1 % Inhibition Assay (Example 13)
Type: biochemical
PROTOCOL CONDITIONS: read-out: % Inhibition (Example 13) @ 1 μM; 1 μM compound; FS1 substrate; pH 5
Property: inhibition at 1 µM; scope: individual molecules

| MOLECULE | MEASUREMENT UNIT | inhibition at 1 µM |
| --- | --- | --- |
| NC1=Nc2ccc3cc2CN1CCCCC(=O)N(C1CCCCC1)CCCc1cccc(c1)O3 [Compound 4] | % | 115 |
| NC1=Nc2cc(F)c3cc2CN1[C@H](C1CCCCC1)CCC(=O)N(C1CCCCC1)CCc1cccc(c1)O3 [Compound 17] | % | 145 |
| CC(C)[C@@H]1CCC(=O)N([C@H]2CC[C@H](C(=O)O)CC2)CCc2cccc(c2)Oc2ccc3c(c2)CN1C(N)=N3 [Compound 24] | % | 43 |
| CC(C)[C@@H]1CCC(=O)N([C@H]2CC[C@@H](C(=O)O)CC2)CCc2cccc(c2)Oc2ccc3c(c2)CN1C(N)=N3 [Compound 23] | % | 108 |
